# Tested on: HT29 colon
# ASSAY_METHOD_TEXT: NCI-60 one-dose screen, 48 h
# DETAILS: 10 µM unless noted
Compounds without any hit were thinned out: in the full panel of roughly 83,000, 20% have a hit. Calls of active or inactive are those of the source. Rule for the calls: active = growth percent below 10; inactive = the rest.
Classes used: true (active), false (inactive)

INSERT INTO assay_data (compound, measured_on, group_label) VALUES
  ('COc1cc(/C=N/N(C)C)ccc1O', 'HT29 colon', 'false'),
  ('CC1=C(NCCN2CCCC2)C(=O)c2c(OCc3ccc(F)c(Cl)c3)cccc2C1=O', 'HT29 colon', 'false'),
  ('C=C1CC[C@@H]2[C@](C)(COC(C)=O)[C@H](OC(C)=O)CC[C@@]2(C)[C@@H]1CC(Nc1ccc(S(=O)(=O)Nc2ccc(Cl)nn2)cc1)C1=CCOC1=O (some centres not stated)', 'HT29 colon', 'true'),
  ('O=C1c2ccccc2-c2nccc3cc(Cl)nc1c23', 'HT29 colon', 'false'),
  ('Cc1ccc(S(=O)(=O)n2cc(-c3csc(-c4cn(C)c5ncccc45)n3)c3ccccc32)cc1', 'HT29 colon', 'false'),
  ('N#Cc1c2c(nc3n[nH]c(N)c13)CCCC2', 'HT29 colon', 'false'),
  ('O=C(Cc1ccccc1)c1ccc(Cl)cc1', 'HT29 colon', 'false'),
  ('CC1=N/C(=C\c2cccc(Br)c2)C(=O)O1', 'HT29 colon', 'false'),
  ('O=C1C(=O)N(CCCCn2cc(CO)nn2)c2ccccc21', 'HT29 colon', 'false'),
  ('CC[C@@H](C)OC(=O)c1nn(C(C)=O)c2ccccc12', 'HT29 colon', 'false'),
  ('CN1CCN(c2ccc3nc(-c4ccc5nc(-c6ccc(OCCC(C)(C)C)cc6)[nH]c5c4)[nH]c3c2)CC1', 'HT29 colon', 'true'),
  ('Cc1ccc2c(NCCCN(C)C)c3c(C)nn(C)c3nc2c1', 'HT29 colon', 'false');
